- Tested on: MS2 coat protein
- Test Protocol: apparent Kd, MS2 coat protein; higher = weaker binding; RNA-MaP array
- Assay Setup: ligand present: flavin mononucleotide; designed as: OFF switch for flavin mononucleotide
The sequences listed here are annotated with their apparent Kd.
# number only, unit nM dropped from output

For orientation, consider the following solved cases.
Incoming: Which apparent Kd is reported with MS2 coat protein for this entry: UUGUUUAGGAUAGGAUAUAGGUCUAAAAGUGAGUCGGACAUGAGGAUCACCCAUGUGGGUGCGAUCUAGAAGGAUCCGCCGCGG ?
Outgoing: 269

Incoming: Enter reported apparent Kd observed with MS2 coat protein for CUCGAGUUUACAGGAUAUUAGGAAAUCGGAUAUUAAGAAGGGUAAAUGUACAUGAGGAUCACCCAUGUUCUCUGCUGCGUCAUA
Outgoing: 14.5

Incoming: Given the entry CUCUAACAAGGAUAUACAUGUCCCAGGAUCCUAUAGGCUUUACAUGAGGAUCACCCAUGUAGAAGGUGUAUUAC , what apparent Kd was observed with MS2 coat protein?
Outgoing: 16.4

Incoming: Entry GGAUAACCGAAGAAGGAGGUUUGUAUGGAAUACCUAGGAUAUUCGCGAGCGUGGGCCACAUGAGGAUCACCCAUGUCGGCAGUU , system MS2 coat protein: what apparent Kd was measured?
Outgoing: 10.4

Incoming: Value wanted: apparent Kd (MS2 coat protein) of entry GAUAGUGAUCCGGGUUACAUGAGGAUCACCCAUGUUACAAAUAGAAGGUCAGAACAAAAUUGAAAGAAGGAUAUAUUUUCAUUG
Outgoing: 39.6

Next:
Incoming: Any idea what apparent Kd came out for CGCGCUGAAGGAUAUGCAUUGGACUACAUGAGGAUCACCCAUGUCCCGUCUUGUGGACCCGCAGAAGGUCACUACC on MS2 coat protein?
Outgoing: 12

Incoming: What reported apparent Kd corresponds to UUCUGGCCGCAGAAGGAGGAUCUGGUUGAAAUCCUAGGAUAUGCAUCUAACCACUGGUCCACAUGAGGAUCACCCAUGUCAGAC on MS2 coat protein?
Outgoing: 12.4

Incoming: Request - read-out apparent Kd | tested on MS2 coat protein | sequence GGAAGUCAAGGAUAUACAUGAGGAUCACCCAUGUCAGGUGCCAAUUAUGUUCUAUAGUGUAGAAGGUGACAAUG
Outgoing: 183

Incoming: Requested read-out apparent Kd, target or system MS2 coat protein, entry GAACAUCGAGGAUAUACAUGAGGAUCACCCAUGUAUUAGAGGGUGCCCUAGCUCAAAAGUAGAAGGCGACAGGU
Outgoing: 12.7

Incoming: Return apparent Kd measured with MS2 coat protein given this sequence: AUUUUGGGAGGAUAUACAUGAGGAUCACCCAUGUUUUAGAACGUAAGAGAAUCCGGAGGUAGAAGGCCCUUCUG
Outgoing: 212

Incoming: Form field: apparent Kd recorded for UUAGGUGCAGGAUAUACAAGACUUAGUAGGAUACCAGACCUACAUGAGGAUCACCCAUGUAGAAGGGCAAUGCA with MS2 coat protein (enter value)
Outgoing: 16.9

Hey, just so you know, these numbers are from the EternaBench riboswitch data.
